These entries and their values trace back to patent US20250326771A1.

# test-target: cIAP1-BIR3 (Homo sapiens (Human))
# Sequence (Q13490 253-363): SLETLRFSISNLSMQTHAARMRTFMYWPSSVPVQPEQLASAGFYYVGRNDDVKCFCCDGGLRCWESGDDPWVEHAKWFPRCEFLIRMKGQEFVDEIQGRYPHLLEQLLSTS
# assay-method-text: BIR binding assay (FRET competition), cIAP1 BIR3
recorded-metric: IC50

# input What value of IC50 has been reported for the following compound? C[C@@H]1CN(CC(=O)N2CC(C)(C)c3ncc(Cc4ccc(Cl)cc4)cc32)[C@@H](CN2CCO[C@H](COc3cccc(OC[C@@H]4CN(C[C@H]5CN[C@H](C)CN5CC(=O)N5CC(C)(C)c6ncc(Cc7ccc(Cl)cc7)cc65)CCO4)c3)C2)CN1
# output 0.0158 to 0.0316 µM

# input What value of IC50 has been reported for the following compound? COC(=O)c1cc(F)ccc1Cc1cnc2c(c1)N(C(=O)CN1C[C@@H](C)NC[C@@H]1CN1CCO[C@H](COc3cccc(OC[C@@H]4CN(C[C@H]5CN[C@H](C)CN5CC(=O)N5CC(C)(C)c6ncc(Cc7ccc(F)cc7C(=O)OC)cc65)CCO4)c3)C1)CC2(C)C
# output 0.00794 to 0.0158 µM
